- System: BVDV NADL virus
- assay notes: CPE-based antiviral assay, BVDV NADL in MDBK cells (MTS/PMS)
- setup conditions: selectivity index, CC50 vs EC50
Tick Yes if S.I. is 100 or greater. Tick No if S.I. is less than 100.

INSERT INTO assay_data (sample_smiles, label_class) VALUES
  ('Cc1cc(C)c2nc(-c3ccco3)cc(C(=O)Nc3nc4c(C)cccc4s3)c2c1', 'No'),
  ('COc1ccc2nc(NC(=O)c3cc(-c4ccsc4)nc4ccccc34)sc2c1', 'Yes'),
  ('Cc1cccc2sc(NC(=O)c3cc(-c4ccsc4)nc4ccccc34)nc12', 'Yes'),
  ('O=C(Nc1cc(-c2ccc(Br)cc2)on1)c1cc(-c2ccccc2)nc2ccccc12', 'No'),
  ('COc1ccc2nc(NC(=O)c3cc(-c4cccc(F)c4)nc4ccccc34)sc2c1', 'Yes');

Where do the numbers come from? From paper PMC7144022.
